- assay.name: Effective permeability of compound at 100 uM at pH 7.4 by PAMPA
- Format: ADME
- measurement.setup: read-out: Peff
Listing of recorded Papp at 100 µM by entry.

# compound, Papp at 100 µM, ×10⁻⁶ cm/s
rows = [
    ("COc1ccc(C(=O)CCC2C=CN(Cc3cccc(Cl)c3)C=C2C(C)=O)cc1OC (stereo not drawn)", 18.2),
    ("COc1ccc2c(c1)CCC(CC1C=CN(Cc3ccccc3Cl)C=C1C(C)=O)C2=O (stereo not drawn)", 21.2),
    ("COc1ccc(C(=O)CCC2C=CN(Cc3cccc(Cl)c3)C=C2C#N)cc1OC (stereo not drawn)", 15.1),
    ("COc1cc2c(cc1OC)C(=O)C(CC1C=CN(Cc3ccccc3C)C=C1C(C)=O)C2 (stereo not drawn)", 19.1),
    ("COc1cc2c(cc1OC)C(=O)C(CC1C=CN(Cc3ccccc3)C=C1C(C)=O)CC2 (stereo not drawn)", 20.4),
    ("COc1ccc2c(c1)CCC(CC1C=CN(Cc3ccccc3C)C=C1C(N)=O)C2=O (stereo not drawn)", 18.8),
    ("COc1ccc(C(=O)CCC2C=CN(Cc3cccc(Cl)c3)C=C2C(N)=O)cc1OC (stereo not drawn)", 18.9),
]
